System: UACC-62
assaySummary: NCI tumour cell line growth inhibition, 48 h
Active and inactive are the calls of the source. No stated cut-off is given here; in the data, active = GI50 up to about 1.1 µM and inactive = higher.
Assign a class; possible classes are Yes = active, No = inactive

The examples below pair each entry with its known result.
[[record]]
molecule = "COc1cc(/C=C/C2=NN(c3cccc(S(=O)(=O)O)c3)C3(C2)C(Cl)C(=O)N3c2nc3ccccc3s2)ccc1O (stereo not given)"
systemtested = "UACC-62"
qualitativelabel = "No"

[[record]]
molecule = "CN(CCCN(C)CCc1ccc(Cl)c(Cl)c1)CCCN1CCCC1"
systemtested = "UACC-62"
qualitativelabel = "No"

[[record]]
molecule = "O=C(/C=C/c1cccc(Br)c1)c1ccc(Cl)cc1"
systemtested = "UACC-62"
qualitativelabel = "No"


Call for entry O=C(c1ccc(Cl)cc1Cl)N(C(=O)N1CCCCC1)c1ccccc1 :
No

Call for entry Cc1cc(-c2ccccc2)nc2oc(=O)n(C)c12 :
No

Call for entry O=C(NC(=O)c1c(Cl)nc2sccn12)Nc1ccc(Cl)cc1 :
No

Call for entry COc1ccc(CCCCl)c(C2=NCCc3cc(OC)c(OC)cc32)c1 :
No

Call for entry O=C1CC(NC(=O)C(F)(F)F)c2c(Br)sc(N3CCNCC3)c21 (stereo not given) :
No

Call for entry Oc1ccc2c(c1)CC[N+]1=C2CCC2CCCC21 (stereo not given) [QUINDONIUM BROMIDE] :
No

Call for entry CCCCCCCCCCCCCCCCOC[C@@H](COC(c1ccccc1)(c1ccccc1)c1ccccc1)O[PH](=S)OC (stereo not given in full) :
No

Call for entry Nc1nc(Cl)cc(Oc2ccc(Cl)cc2)n1 :
No

---

Test system: HOP-92
assaySummary: NCI tumour cell line growth inhibition, 48 h
The source made the active and inactive calls. Cut-off read from the data, not from the text of the source: active = GI50 up to about 1.1 µM and inactive = higher.
parameterMeasured: GI50

[[record]]
molecule = "CCOC(=O)CC1(N)CC2c3ccccc3OC(=O)C2C(=O)N1 (stereo not given)"
systemtested = "HOP-92"
parametermeasured = "GI50"
result = "> 100 µM (inactive)"

[[record]]
molecule = "CCCCCCOc1ccc(NC2=C(Cl)C(=O)c3ncccc3C2=O)cc1"
systemtested = "HOP-92"
parametermeasured = "GI50"
result = "> 10 µM (inactive)"

[[record]]
molecule = "Cc1nc(NC(=S)NC(=O)c2ccc(Cl)c(Cl)c2)sc1C(=O)/C=C/c1ccccc1[N+](=O)[O-]"
systemtested = "HOP-92"
parametermeasured = "GI50"
result = "0.989 µM (active)"


Give measured GI50 for every item shown.
1. COC(=O)C(Cc1c(C2Nc3ccccc3C2CC(NC(=O)CNC(C)=O)C(=O)OC)[nH]c2ccccc12)NC(=O)CNC(C)=O (stereo not given)
2. N#C/N=N/c1cc(Cl)c(/N=N/C#N)cc1Cl

["> 100 µM (inactive)", "> 100 µM (inactive)"]

---

Test system: OVCAR-4
assaySummary: NCI tumour cell line growth inhibition, 48 h
Activity calls are given as the source filed them. Rule as the data show it: active = GI50 up to about 1.1 µM and inactive = higher.
parameterMeasured: GI50

// worked examples, GI50 included
[[record]]
compound = "CC(C)(C)n1c(=O)[nH]c(=O)n1C(C)(C)C"
systemtested = "OVCAR-4"
result = "> 100 µM (inactive)"

[[record]]
compound = "O=c1[nH]c2cc([N+](=O)[O-])ccc2nc1/C(=N/Nc1ccccc1)C(O)c1ccccc1Cl (stereo not drawn)"
systemtested = "OVCAR-4"
result = "79.8 µM (inactive)"

[[record]]
compound = "CN(C)CCCn1c(-c2cc(C(C)(C)C)c(O)c(C(C)(C)C)c2)cs/c1=N\\c1ccccc1"
systemtested = "OVCAR-4"
result = "2.09 µM (inactive)"

[[record]]
compound = "N#CC12CC3=C(N=C1NC1=C(CCc4ccccc41)C2)c1ccccc1CC3 (stereo not drawn)"
systemtested = "OVCAR-4"
result = "7.55 µM (inactive)"


Give measured GI50 for every item shown.
1. CN(C)CN1CSC(=S)N(CN(C)C)C1
2. O=S(=O)(N1CCCCN(S(=O)(=O)C(F)(F)F)CCCN(S(=O)(=O)C(F)(F)F)CCCN(S(=O)(=O)C(F)(F)F)CCCCN(S(=O)(=O)C(F)(F)F)CCCN(S(=O)(=O)C(F)(F)F)CCC1)C(F)(F)F

> 100 µM (inactive)
> 100 µM (inactive)

Give measured GI50 for every item shown.
1. COc1cc(/C=C/C(=O)OC[C@]23O[C@H]2[C@@H](OC2OC(C)C(O)C(O)C2O)C2C=CO[C@@H](OC4OC(CO)C(O)C(O)C4O)C23)ccc1O (stereo partly drawn)
2. C=C[C@@H](C)[C@]1(C(=O)OC)CCCC12OCCO2

1. > 100 µM (inactive)
2. > 100 µM (inactive)

Source: ChEMBL document CHEMBL1201862
